experiment: NCI Yeast Anticancer Drug Screen. Data for the mlh1 strain (AID 171); conditions: S. cerevisiae mlh1 strain growth inhibition; at 33.0 µM
The panel holds about 79,000 compounds, 15% with a hit somewhere; the sample as a whole holds those more often. The source made the active and inactive calls. No stated cut-off is given here; in the data, active means growth inhibition above about 70%; inactive means the rest.
Choose one outcome from this list and give only that: active, inactive

q: Record lookup: outcome of this test for Cc1nc2c(Br)cc(Br)cc2c(=O)n1-c1ccccc1NC1OCC(O)C(O)C1O (stereo not given) ?
a: inactive

New cases:
q: Check the results log: what was the call for COc1cccc2c1C(=O)c1c(O)c3c(c(O)c1C2=O)CC(O)(C(O)CO)CC3OC1CC(N2CCOCC2)C(O)C(C)O1 (stereo not given) ?
a: active
